Value source: patent US20240207422A1

Examples of substances with documented Count follow.
# System: excised human nerve tissue
# assay protocol: Phage display selection on excised human nerve tissue (Nerve2, Nerve3), NextGen sequence counts
# Format: binding
# condition info: unique sequence count (relative enrichment); Nerve3 only
Write no unit; give the number alone.

Examples with answers:
# substance, Count
data = [
    ("365 (HVVWESSHFVVIDS) [compound 365]", 329),
    ("435 (QLLWDPPSYFVNNS) [compound 435]", 92),
    ("411 (NDPWPVPYYMVKNS) [compound 411]", 130),
]

Name the reported Count value associated with the substance 362 (FVSREEPYYVVKKS) [compound 362]
341

Moving on to the next substance: 443 (QLTWELGYHAFVKP) [compound 443]
83

Param item: 356 (QLPGYEPYYVGTVS) [compound 356]
412

Similarly, 385 (HVSGEEPYTVGNTS) [compound 385] ?
234

And then 413 (HFPLQEPYYVVKNS) [compound 413] , what is it?
127

Try 364 (QFPSVGSYYVVPQS) [compound 364] next.
331

Now the same for 394 (HFPSEYPFDLVSKS) [compound 394]
196

Another substance: 424 (ESPWAPPYYVVKKS) [compound 424]
107

Now the substance 427 (FVARNEPFYVVGTS) [compound 427]
104

----------
# Test system: human nerve extract
# assay protocol: Phage display selection on plates coated with human nerve extract (Plated Nerve2), NextGen sequence counts
# Format: binding
# condition info: unique sequence count (relative enrichment); Plated Nerve2 only
endpoint name: Count

Please review the following examples before continuing.
# substance, Count
measured = [
    ("555 (QHPWKEQYYMATKP) [compound 555]", 36),
    ("517 (QLPFNEPYYSQQVS) [compound 517]", 42),
]

Find the recorded Count belonging to 516 (QFPWDEPNYVVKNF) [compound 516] and report it.
42

Same again, this time with 452 (QIPGDAQYRLVKRS) [compound 452]
80

Can you handle 507 (QFPRHDPNEVVHKS) [compound 507] next?
45

----------
# System: human nerve extract
# assay protocol: Phage display selection on plates coated with human nerve extract (Plated Nerve2), NextGen sequence counts
# Format: binding
# condition info: unique sequence count (relative enrichment); Plated Nerve2 only
Categorize each record by its Count using bottom = under 40, middle = from 40 up to 50, top = 50 and over

Before answering, review these 5 worked examples.
# substance, assigned category
measured = [
    ("551 (HVQWDQTSYVVKNS) [compound 551]", "bottom"),
    ("514 (QHLGEEPSYSGEYA) [compound 514]", "middle"),
    ("532 (QFASEEPYHVMKKP) [compound 532]", "bottom"),
    ("500 (QFPWETSYYIVKNS) [compound 500]", "middle"),
    ("462 (HLSREGTYYAVKQP) [compound 462]", "top"),
]

# classify by Count band: 536 (QLPSQTQNYYDTNA) [compound 536]
bottom

Next record, please: 474 (QLALEQQSYDAKMS) [compound 474]
top

Moving on to the next substance: 498 (HVPQKEPYYVVKTF) [compound 498]
middle

Moving on to 466 (QIPGGERSYVLENS) [compound 466]
top

Input 533 (QFSRADSQYLVKNS) [compound 533]
bottom

What do you have for 546 (DVALGESHYNVKKY) [compound 546] ?
bottom

# iterate: 542 (QLPGAEAQNVVKYS) [compound 542]
bottom

Same for 483 (QVLFAKSYYSVKDS) [compound 483]
top

And the next one, 477 (QIRSTEPYYVFKKT) [compound 477] ?
top

Now the same for 543 (QLRFDEHHSVVTHS) [compound 543]
bottom

Similarly, 530 (LFTGQQSYYEVQES) [compound 530] ?
bottom

Another: 470 (QIPLEGPTYVTNPS) [compound 470]
top

Next: 510 (ELTMEQPSYVGNVS) [compound 510]
middle

What would you report for 459 (HVSCEVPCYGALAS) [compound 459] ?
top

Can you handle 479 (QITSVDPSSLAYRS) [compound 479] next?
top

Next record, please: 552 (HVTSDDSYYAVKNP) [compound 552]
bottom
